Quick note: these are pIC50 numbers for system: PI3K-gamma (Homo sapiens)
Sequence (P48736 whole entry, species assumed): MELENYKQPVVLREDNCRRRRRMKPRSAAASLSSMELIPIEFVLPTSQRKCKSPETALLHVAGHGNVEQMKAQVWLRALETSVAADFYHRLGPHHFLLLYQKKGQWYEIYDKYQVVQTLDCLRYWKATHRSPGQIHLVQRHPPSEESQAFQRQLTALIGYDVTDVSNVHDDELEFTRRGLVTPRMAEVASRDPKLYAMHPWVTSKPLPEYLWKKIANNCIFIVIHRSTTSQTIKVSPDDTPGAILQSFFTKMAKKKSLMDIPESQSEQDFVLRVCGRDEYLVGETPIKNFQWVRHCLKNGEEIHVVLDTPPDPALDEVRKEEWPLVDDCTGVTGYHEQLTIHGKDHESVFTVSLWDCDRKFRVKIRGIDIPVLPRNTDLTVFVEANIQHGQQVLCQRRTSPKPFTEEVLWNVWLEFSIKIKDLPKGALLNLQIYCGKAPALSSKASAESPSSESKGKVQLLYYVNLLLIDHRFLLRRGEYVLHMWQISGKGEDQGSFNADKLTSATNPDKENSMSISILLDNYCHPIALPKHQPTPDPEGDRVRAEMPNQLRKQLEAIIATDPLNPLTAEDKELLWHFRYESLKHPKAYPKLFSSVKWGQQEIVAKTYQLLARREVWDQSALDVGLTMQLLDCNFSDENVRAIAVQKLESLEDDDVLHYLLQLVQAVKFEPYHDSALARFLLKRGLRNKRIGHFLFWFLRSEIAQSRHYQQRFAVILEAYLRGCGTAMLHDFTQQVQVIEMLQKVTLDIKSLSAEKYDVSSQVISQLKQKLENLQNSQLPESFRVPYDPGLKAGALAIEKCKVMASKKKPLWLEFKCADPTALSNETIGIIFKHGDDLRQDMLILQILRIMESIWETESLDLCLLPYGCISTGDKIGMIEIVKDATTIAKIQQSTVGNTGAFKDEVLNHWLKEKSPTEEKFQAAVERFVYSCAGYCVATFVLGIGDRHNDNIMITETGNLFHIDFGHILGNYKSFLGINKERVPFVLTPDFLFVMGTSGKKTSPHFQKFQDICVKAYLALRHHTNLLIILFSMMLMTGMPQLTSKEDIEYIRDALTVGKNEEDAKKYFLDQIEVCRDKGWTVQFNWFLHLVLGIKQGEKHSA
One number for each entry, as −log10 of the molar value.

{"smilesStr": "CN(C)CCOc1ccc(NC(=O)Nc2ccc(-c3nc(N4C5CCC4COC5)cc(N4C[C@H]5C[C@@H]4CO5)n3)cc2)cc1", "pIC50": 5.02}
{"smilesStr": "C[C@@H]1CN(c2cc(N3C4CCC3COC4)nc(-c3ccc(NC(=O)Nc4ccncc4)cc3)n2)C[C@H](C)O1", "pIC50": 5.27}
{"smilesStr": "CCN(CC)c1cc(N2C3CCC2COC3)nc(-c2ccc(NC(=O)Nc3ccncc3)cc2)n1", "pIC50": 5.70}

We next turn to a different compound, shown below.
For CC(C)Nc1cc(N2C3COCC2COC3)nc(-c2ccc(NC(=O)Nc3ccc(OCCN(C)C)cc3)cc2)n1 the compound record lists pIC50 as 5.06
